- assayed_target: fusion protein PRH
- Sequence (chain, as listed by the source): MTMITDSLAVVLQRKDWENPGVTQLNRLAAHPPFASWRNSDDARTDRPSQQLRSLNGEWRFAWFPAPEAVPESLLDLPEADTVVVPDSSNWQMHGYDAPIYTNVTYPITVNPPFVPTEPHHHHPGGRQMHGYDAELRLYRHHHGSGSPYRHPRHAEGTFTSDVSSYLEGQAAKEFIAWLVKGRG

[
  {
    "protein": "OmpT protease variant OmpT D97E (protein) STETLSFTPDNINADISLGTLSGKTKERVYLAEEGGRKVSQLDWKFNNAAIIKGAINWDLMPQISIGAAGWTTLGSRGGNMVDQDWMDSSNPGTWTEESRHPDTQLNYANEFDLNIKGWLLNEPNYRLGLMAGYQESRYSFTARGGSYIYSSEEGFRDDIGSFPNGERAIGYKQRFKMPYIGLTGSYRYEDFELGGTFKYSGWVESSDNDEHYDPGKRITYRSKVKDQNYYSVAVNAGYYVTPNAKVYVEGAWNRVTNKKGNTSLYDHNNNTSDYSKNGAGIENYNFITTAGLKYTF",
    "relative cleavage efficiency": "less than 3%"
  },
  {
    "protein": "OmpT protease variant OmpT D97G (protein) STETLSFTPDNINADISLGTLSGKTKERVYLAEEGGRKVSQLDWKFNNAAIIKGAINWDLMPQISIGAAGWTTLGSRGGNMVDQDWMDSSNPGTWTGESRHPDTQLNYANEFDLNIKGWLLNEPNYRLGLMAGYQESRYSFTARGGSYIYSSEEGFRDDIGSFPNGERAIGYKQRFKMPYIGLTGSYRYEDFELGGTFKYSGWVESSDNDEHYDPGKRITYRSKVKDQNYYSVAVNAGYYVTPNAKVYVEGAWNRVTNKKGNTSLYDHNNNTSDYSKNGAGIENYNFITTAGLKYTF",
    "relative cleavage efficiency": "less than 3.0%"
  },
  {
    "protein": "OmpT protease variant OmpT D97Y (protein) STETLSFTPDNINADISLGTLSGKTKERVYLAEEGGRKVSQLDWKFNNAAIIKGAINWDLMPQISIGAAGWTTLGSRGGNMVDQDWMDSSNPGTWTYESRHPDTQLNYANEFDLNIKGWLLNEPNYRLGLMAGYQESRYSFTARGGSYIYSSEEGFRDDIGSFPNGERAIGYKQRFKMPYIGLTGSYRYEDFELGGTFKYSGWVESSDNDEHYDPGKRITYRSKVKDQNYYSVAVNAGYYVTPNAKVYVEGAWNRVTNKKGNTSLYDHNNNTSDYSKNGAGIENYNFITTAGLKYTF",
    "relative cleavage efficiency": "less than 3.0%"
  },
  {
    "protein": "OmpT protease variant OmpT D97W (protein) STETLSFTPDNINADISLGTLSGKTKERVYLAEEGGRKVSQLDWKFNNAAIIKGAINWDLMPQISIGAAGWTTLGSRGGNMVDQDWMDSSNPGTWTWESRHPDTQLNYANEFDLNIKGWLLNEPNYRLGLMAGYQESRYSFTARGGSYIYSSEEGFRDDIGSFPNGERAIGYKQRFKMPYIGLTGSYRYEDFELGGTFKYSGWVESSDNDEHYDPGKRITYRSKVKDQNYYSVAVNAGYYVTPNAKVYVEGAWNRVTNKKGNTSLYDHNNNTSDYSKNGAGIENYNFITTAGLKYTF",
    "relative cleavage efficiency": "less than 3.0%"
  },
  {
    "protein": "OmpT protease variant OmpT D97M (protein) STETLSFTPDNINADISLGTLSGKTKERVYLAEEGGRKVSQLDWKFNNAAIIKGAINWDLMPQISIGAAGWTTLGSRGGNMVDQDWMDSSNPGTWTMESRHPDTQLNYANEFDLNIKGWLLNEPNYRLGLMAGYQESRYSFTARGGSYIYSSEEGFRDDIGSFPNGERAIGYKQRFKMPYIGLTGSYRYEDFELGGTFKYSGWVESSDNDEHYDPGKRITYRSKVKDQNYYSVAVNAGYYVTPNAKVYVEGAWNRVTNKKGNTSLYDHNNNTSDYSKNGAGIENYNFITTAGLKYTF",
    "relative cleavage efficiency": "less than 3%"
  },
  {
    "protein": "OmpT protease variant OmpT D97A (protein) STETLSFTPDNINADISLGTLSGKTKERVYLAEEGGRKVSQLDWKFNNAAIIKGAINWDLMPQISIGAAGWTTLGSRGGNMVDQDWMDSSNPGTWTAESRHPDTQLNYANEFDLNIKGWLLNEPNYRLGLMAGYQESRYSFTARGGSYIYSSEEGFRDDIGSFPNGERAIGYKQRFKMPYIGLTGSYRYEDFELGGTFKYSGWVESSDNDEHYDPGKRITYRSKVKDQNYYSVAVNAGYYVTPNAKVYVEGAWNRVTNKKGNTSLYDHNNNTSDYSKNGAGIENYNFITTAGLKYTF",
    "relative cleavage efficiency": "less than 3%"
  },
  {
    "protein": "OmpT protease variant OmpT D97K (protein) STETLSFTPDNINADISLGTLSGKTKERVYLAEEGGRKVSQLDWKFNNAAIIKGAINWDLMPQISIGAAGWTTLGSRGGNMVDQDWMDSSNPGTWTKESRHPDTQLNYANEFDLNIKGWLLNEPNYRLGLMAGYQESRYSFTARGGSYIYSSEEGFRDDIGSFPNGERAIGYKQRFKMPYIGLTGSYRYEDFELGGTFKYSGWVESSDNDEHYDPGKRITYRSKVKDQNYYSVAVNAGYYVTPNAKVYVEGAWNRVTNKKGNTSLYDHNNNTSDYSKNGAGIENYNFITTAGLKYTF",
    "relative cleavage efficiency": "less than 3.0%"
  },
  {
    "protein": "OmpT protease variant OmpT D97V (protein) STETLSFTPDNINADISLGTLSGKTKERVYLAEEGGRKVSQLDWKFNNAAIIKGAINWDLMPQISIGAAGWTTLGSRGGNMVDQDWMDSSNPGTWTVESRHPDTQLNYANEFDLNIKGWLLNEPNYRLGLMAGYQESRYSFTARGGSYIYSSEEGFRDDIGSFPNGERAIGYKQRFKMPYIGLTGSYRYEDFELGGTFKYSGWVESSDNDEHYDPGKRITYRSKVKDQNYYSVAVNAGYYVTPNAKVYVEGAWNRVTNKKGNTSLYDHNNNTSDYSKNGAGIENYNFITTAGLKYTF",
    "relative cleavage efficiency": "less than 3.0%"
  }
]
